Test system: Histone-lysine N-methyltransferase EHMT2 (Mus musculus, UniProt Q9Z148)
Sequence (Q9Z148 whole entry): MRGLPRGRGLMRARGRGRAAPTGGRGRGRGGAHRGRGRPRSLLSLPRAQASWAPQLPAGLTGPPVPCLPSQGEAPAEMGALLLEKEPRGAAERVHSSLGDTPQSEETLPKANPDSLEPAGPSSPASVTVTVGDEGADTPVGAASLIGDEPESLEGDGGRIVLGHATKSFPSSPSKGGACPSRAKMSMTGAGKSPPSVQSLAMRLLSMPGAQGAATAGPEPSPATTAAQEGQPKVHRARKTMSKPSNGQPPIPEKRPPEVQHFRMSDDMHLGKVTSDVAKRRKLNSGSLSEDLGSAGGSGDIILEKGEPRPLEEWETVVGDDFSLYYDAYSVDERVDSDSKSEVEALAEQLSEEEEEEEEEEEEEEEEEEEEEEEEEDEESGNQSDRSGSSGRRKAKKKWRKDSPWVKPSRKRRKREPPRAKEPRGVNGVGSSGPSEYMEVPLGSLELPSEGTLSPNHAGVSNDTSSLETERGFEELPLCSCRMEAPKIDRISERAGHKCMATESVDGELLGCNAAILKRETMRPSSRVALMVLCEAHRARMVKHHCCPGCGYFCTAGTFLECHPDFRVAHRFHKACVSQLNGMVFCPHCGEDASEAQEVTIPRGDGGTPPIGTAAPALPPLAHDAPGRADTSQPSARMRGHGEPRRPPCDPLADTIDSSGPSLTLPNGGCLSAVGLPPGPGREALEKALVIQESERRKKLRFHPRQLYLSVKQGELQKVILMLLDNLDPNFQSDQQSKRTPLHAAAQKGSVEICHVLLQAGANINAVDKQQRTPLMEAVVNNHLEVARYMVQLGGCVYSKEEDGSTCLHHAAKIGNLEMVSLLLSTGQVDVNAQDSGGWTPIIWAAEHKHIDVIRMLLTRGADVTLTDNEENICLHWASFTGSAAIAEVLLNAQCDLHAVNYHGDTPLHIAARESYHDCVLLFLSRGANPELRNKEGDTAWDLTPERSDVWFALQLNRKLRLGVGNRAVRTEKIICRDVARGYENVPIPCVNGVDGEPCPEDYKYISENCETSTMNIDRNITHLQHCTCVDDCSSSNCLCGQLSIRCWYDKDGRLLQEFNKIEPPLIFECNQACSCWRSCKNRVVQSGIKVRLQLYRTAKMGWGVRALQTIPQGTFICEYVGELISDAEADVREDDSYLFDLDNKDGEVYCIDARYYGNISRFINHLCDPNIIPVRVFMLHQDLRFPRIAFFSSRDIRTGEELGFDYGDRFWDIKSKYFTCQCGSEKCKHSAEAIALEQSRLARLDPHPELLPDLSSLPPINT
Method notes: Inhibition of mouse G9a
Endpoint label: pIC50
# pIC50 is unitless: minus log10 of the molar concentration; print number only

Ask | Given the molecule CN1C(=O)[C@@]23C[C@]4([C@]56C[C@@]78SS[C@@](CO)(C(=O)N7[C@H]5Nc5ccccc56)N(C)C8=O)c5ccccc5N[C@@H]4N2C(=O)[C@]1(CO)SS3 , write its reported pIC50.
Reply | 5.60

---

Test system: Histone-lysine N-methyltransferase Set8 (Drosophila melanogaster, UniProt Q9VFK6)
Sequence (Q9VFK6 whole entry): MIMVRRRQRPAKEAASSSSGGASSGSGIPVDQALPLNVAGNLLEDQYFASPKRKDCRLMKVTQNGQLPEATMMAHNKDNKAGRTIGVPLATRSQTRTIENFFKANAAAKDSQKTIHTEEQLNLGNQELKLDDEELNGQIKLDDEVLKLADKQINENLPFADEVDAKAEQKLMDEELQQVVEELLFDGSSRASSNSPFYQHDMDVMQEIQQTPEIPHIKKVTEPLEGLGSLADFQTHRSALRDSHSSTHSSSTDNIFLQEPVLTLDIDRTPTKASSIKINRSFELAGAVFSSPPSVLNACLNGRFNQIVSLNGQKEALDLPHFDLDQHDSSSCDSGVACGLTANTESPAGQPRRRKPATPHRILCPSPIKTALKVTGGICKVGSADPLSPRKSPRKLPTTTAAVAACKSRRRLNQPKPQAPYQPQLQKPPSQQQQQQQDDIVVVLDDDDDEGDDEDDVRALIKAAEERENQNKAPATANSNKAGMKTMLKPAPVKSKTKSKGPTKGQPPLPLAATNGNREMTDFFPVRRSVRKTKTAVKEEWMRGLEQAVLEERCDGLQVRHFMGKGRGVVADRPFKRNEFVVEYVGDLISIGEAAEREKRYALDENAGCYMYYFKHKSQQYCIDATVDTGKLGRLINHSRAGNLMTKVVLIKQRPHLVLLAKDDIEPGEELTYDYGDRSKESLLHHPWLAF
Method notes: Inhibition of Drosophila melanogaster PRSET2
Endpoint label: IC50

Ask | Look up and report measured IC50 (Histone-lysine N-methyltransferase Set8 (Drosophila melanogaster, UniProt Q9VFK6)) for the following compound: CN1C(=O)[C@@]23C[C@]4([C@]56C[C@@]78SS[C@@](CO)(C(=O)N7[C@H]5Nc5ccccc56)N(C)C8=O)c5ccccc5N[C@@H]4N2C(=O)[C@]1(CO)SS3
Reply | > 180 µM

---

Method notes: Inhibition of Drosophila melanogaster SET7/9
Endpoint label: IC50

Ask | Given the molecule CN1C(=O)[C@@]23C[C@]4([C@]56C[C@@]78SS[C@@](CO)(C(=O)N7[C@H]5Nc5ccccc56)N(C)C8=O)c5ccccc5N[C@@H]4N2C(=O)[C@]1(CO)SS3 , write its reported IC50.
Reply | > 180 µM
